# test-description: qHTS assay to identify small molecule that activate the aryl hydrocarbon receptor (AhR) signaling pathway - cell viability counter screen (AID 743086); note: nearly all actives have a fitted effect of over 45% in size
# condition-info: HepG2-AhR-luc viability, CellTiter-Fluor, 24 h; series mostly up to 70.3 µM
Inconclusive results are not listed. Activity calls are given as the source filed them. Calls come from the whole dose curve; as a rule, active = well fitted cell-killing curve with a large enough effect in the repeat runs; inconclusive = weak or mixed curves, or effect the other way; inactive = flat fitted curve, though single readings scatter.
Valid outcomes are listed here; reply with one: T for active, F for inactive

Give the logged outcome of this assay for the following compound: `Cc1[nH]nc2c1N=C(c1ccccc1Cl)c1cc([N+](=O)[O-])ccc1N2` T

Could you check what this test reported for CCCC1O[C@@H]2C[C@H]3[C@@H]4CCC5=CC(=O)C=C[C@]5(C)[C@H]4[C@@H](O)C[C@]3(C)[C@]2(C(=O)CO)O1 (some centres not stated) ? F

Would you mind telling me which call this test gave `CSc1cnc(C)cn1` ? F

Query: recorded result category for `C=CC(=O)OCCn1c(=O)n(CCOC(=O)C=C)c(=O)n(CCOC(=O)C=C)c1=O` in this test T

In this assay, the call recorded for `COc1cc(/C=C/C(=O)O[C@H]2CC[C@]34C[C@]35CC[C@]3(C)[C@@H]([C@H](C)CCC=C(C)C)CC[C@@]3(C)[C@@H]5CC[C@H]4C2(C)C)ccc1O` was what? F

Check the results log: what was the call for `Oc1ccc2c(c1)-c1ccccc1C2` ? F

Which result was noted for this compound in the test: Cc1nc(-c2ccc3c(c2)CCN(CCC2CCC(NC(=O)/C=C/c4ccc(F)cc4)CC2)CC3)no1 (configuration not stated) F

Just curious, what result did `CC(C)=CCOc1ccc(/C=C/C(=O)c2ccc(OCC=C(C)C)cc2OCC(=O)O)cc1` get here? F

Returns: the outcome recorded for `C[C@H]1[C@H]2CC[C@H]3[C@@H]4CC=C5C[C@@H](N(C)C)CC[C@]5(C)[C@H]4CC[C@]23CN1C` in this assay. F

Please share the test call associated with `CCc1oc2ccccc2c1C(=O)c1cc(Br)c(O)c(Br)c1` . F

So what was the verdict on `COc1cc(-c2ccc(N=C=O)c(OC)c2)ccc1N=C=O` in this test? F

Per the records of this test, what outcome belongs to `O=Cc1cc(O)ccc1Br` ? F

Call for entry `CN(C)c1ccc(C2(c3ccc(N(C)C)cc3)OC(=O)c3cc(N(C)C)ccc32)cc1` : F

In this assay, the call recorded for CC1=NC(C)OC1C (configuration not stated) was what? F

Lab log entry: `Cc1cc(C2CCCCC2)n(O)c(=O)c1` — outcome as called in the assay? F

Look up the recorded call for `O=C(Nc1cccc(Cl)c1)OCC#CCCl` in this test. T

# outcome recorded in this test, key = `C[n+]1ccn(Cc2ccccc2)c1` F

Please share the test call associated with `NC(=NCCCCCCN=C(N)/N=C(\N)Nc1ccc(Cl)cc1)/N=C(\N)Nc1ccc(Cl)cc1` . F

Outcome? `O=C1Cc2cc(CCN3CCN(c4nsc5ccccc45)CC3)c(Cl)cc2N1` F

Fill in: this test's call for `CCCCN(CCCC)c1ccc(C(=O)c2ccccc2C(=O)O)c(O)c1` is ___ F

Entry `C[n+]1cc2c3c(ccc2c2ccc4cc5c(cc4c21)OCO5)OCO3` : call = ? T

Fill in: this test's call for `CC(C)(C)c1ccc(C(=O)O)cc1` is ___ F

* * *

# test-description: qHTS assay to identify small molecule agonists of the constitutive androstane receptor (CAR) signaling pathway - cell viability counter screen (AID 1224836); note: nearly all actives have a fitted effect of over 45% in size; note: potency is the fitted concentration of half-maximal effect
# condition-info: HepG2-CYP2B6-hCAR viability, CellTiter-Fluor, 23 h, PK11195 added to every well; series mostly up to 92.4 µM
Inconclusive results are not listed. Calls of active or inactive are those of the source. The call rests on the fitted dose curve; in most records, active means well fitted cell-killing curve with a large enough effect in the repeat runs; inconclusive means weak or mixed curves, or effect the other way; inactive means flat fitted curve, though single readings scatter.
recorded-endpoint: Potency

The compound listed as `CCN(C(=O)c1cc(C)cc(OC[C@H](C)Nc2ccncc2)c1)C(C)C` has a reported Potency of inactive

// recorded Potency for `CCc1cc(SCc2sc(-c3ccc(C(F)(F)F)cc3)nc2CN2CCN(c3ccc(OC)cc3)CC2)ccc1OCC(=O)O` : inactive

Noted for CC(C)OC(=O)c1cc2c(OCC(O)CNC(C)(C)C)cccc2[nH]1 (stereo not given) : its Potency reads inactive

Item: `CC(C)(C)CC(C)(C)c1ccc(OCCOCC[N+](C)(C)Cc2ccccc2)cc1` | Potency: inactive

Per the records, this compound ( `OCc1c[nH]c2ccccc12` ) has Potency equal to inactive

The compound listed as `Fc1ccc([C@@H]2CCNC[C@H]2COc2ccc3c(c2)OCO3)cc1` shows Potency equal to inactive

Summary for this compound, `CN(C)C(=O)C1(N2CCCCC2)CCN(CC[C@@]2(c3ccc(Cl)c(Cl)c3)CN(C(=O)c3ccccc3)CCO2)CC1` : Potency is 50.9 µM (active)

Lab note: `Cc1cc2c(cc1C(F)(F)F)N(C(=O)Nc1ccc(Oc3cccnc3C)nc1)CC2` gave Potency of inactive

Sure, the documented Potency for `CCCCCCCCCCCC[N+](C)(C)CCCCCCCCCCCC` is 27.3 µM (active)

Others:
The reported Potency of the compound CCC(Cl)C(Cl)C(Cl)CC(Cl)C(Cl)C(C)Cl (stereo not given) was inactive

* * *

# test-description: qHTS assay to identify small molecule antagonists of the vitamin D receptor (VDR) signaling pathway - cell viability counter screen (AID 743225); note: nearly all actives have a fitted effect of over 50% in size
# condition-info: VDR-bla HEK293T viability, CellTiter-Glo luminescence, 16 h; series mostly up to 61 µM
Results filed as inconclusive are left out. Active and inactive are the calls of the source. Calls follow the shape of the dose curve; as a rule, active = well fitted cell-killing curve with a large enough effect in the repeat runs; inconclusive = weak or mixed curves, or effect the other way; inactive = no such curve, though single readings can be large or run the other way.
Tick one outcome: Yes (active), No (inactive)

Just curious, what result did CC(NN)c1ccccc1 (stereo unspecified) get here? No

In this assay, the call recorded for `COCCCC/C(=N\OCCN)c1ccc(C(F)(F)F)cc1` was what? No

For `O=C(O)c1cc(O)c2c(c1)C(=O)c1cccc(O)c1C2=O` , which call appears in the assay record? No

Please share the test call associated with `Cc1cc(O)c(Cl)c(C)c1Cl` . Yes

Tell me the recorded outcome of this test for `CCc1cc(SCc2sc(-c3ccc(C(F)(F)F)cc3)nc2CN2CCN(c3ccc(OC)cc3)CC2)ccc1OCC(=O)O` . Yes

Any idea what this test logged for `O=C(O)c1ccc(Cl)c(Cl)c1` ? No

* * *

# test-description: qHTS assay to identify small molecule agonists of the estrogen related receptor signaling pathway with the pleiotropic PPARgamma coactivator (PGC) from Tox21 10K library (AID 1224842); note: nearly all actives have a fitted effect of over 15% in size
# condition-info: PGC/ERR reporter cell line, luciferase ONE-Glo, 18 h; series mostly up to 92.4 µM
# Procedure: National Center for Advancing Translational Sciences [NCATS] NIH Chemical Genomics Center [NCGC] U.S. Environmental Protection Agency [EPA] National Institutes of Environmental Health Sciences [NIEHS] National Toxicology Program [NTP] […] Assay Protocol Summary: The PGC/ERR cells were dispensed at 2,000 cells/5 ul/well in 1536-well white plates using a Multidrop dispenser. […] After 30-minute incubation at room temperature, the luminescence intensity in the plates was measured using a ViewLux plate reader.
Inconclusive results are not listed. Active and inactive are the calls of the source. Calls follow the shape of the dose curve; as a rule, active = well fitted activation curve with a large enough effect in the repeat runs; inconclusive = weak or mixed curves, or effect the other way; inactive = no such curve, though single readings can be large or run the other way.
recorded-endpoint: outcome

Lab book: outcome of `CC(C)CCCCCCCCCCCCCCC(=O)O` noted as inactive

molecule `Cc1cc(O)c(Cl)c(C)c1Cl` , outcome observed: inactive

For reference, reported outcome for `CC(C)(C)NC(=O)[C@@H]1C[C@@H]2CCCC[C@@H]2CN1C[C@@H](O)[C@H](Cc1ccccc1)NC(=O)[C@H](CC(N)=O)NC(=O)c1ccc2ccccc2n1` stands at inactive

GET /value?item= `O=C(OCC(COC(=O)c1ccccc1)(COC(=O)c1ccccc1)COC(=O)c1ccccc1)c1ccccc1` &field=outcome returns inactive

Field: next molecule
For reference, reported outcome for `CN(C)c1ccc(C2(c3ccc(N(C)C)cc3)OC(=O)c3cc(N(C)C)ccc32)cc1` stands at inactive

* * *

# measured-target: Luciferin 4-monooxygenase (Photinus pyralis)
# test-description: qHTS assay to identify small molecule inhibitors of firefly luciferase (AID 1224835); note: nearly all actives have a fitted effect of over 25% in size
# condition-info: purified P. pyralis luciferase, luminescence inhibition; series mostly up to 115 µM
Results filed as inconclusive are left out. Activity calls are given as the source filed them. The call rests on the fitted dose curve; in most records, active means well fitted inhibition curve with a large enough effect in the repeat runs; inconclusive means weak or mixed curves; inactive means flat fitted curve, though single readings scatter.
Would you mind answering with one of these outcomes? y for active, n for inactive

I would be grateful if you could indicate the recorded call for `O=C(NOCC1CC1)c1ccc(F)c(F)c1Nc1ccc(I)cc1Cl` . n

# fetch the recorded call for `CN1CCC(Nc2ncc3ncnc(Nc4ccc(F)c(Cl)c4)c3n2)CC1` here n

Call for entry `O=C1Cc2cc(CCN3CCN(c4nsc5ccccc45)CC3)c(Cl)cc2N1` : n

In this assay, the call recorded for `COc1cc(-c2ccc(N=C=O)c(OC)c2)ccc1N=C=O` was what? n

Query: recorded result category for `NC(=O)CC[C@@H]1NC(=O)[C@H](Cc2ccccc2)NC(=O)[C@H](Cc2ccc(O)cc2)NC(=O)CCSSC[C@@H](C(=O)N2CCC[C@H]2C(=O)N[C@@H](CCCN=C(N)N)C(=O)NCC(N)=O)NC(=O)[C@H](CC(N)=O)NC1=O` in this test n

Dear colleague, could you share the recorded outcome for `CCCCCCCCCCCC[N+](C)(C)CCCCCCCCCCCC` when you have a moment? y

Per the records of this test, what outcome belongs to `CC[C@H]1O[C@]2(CC[C@@H]1C)C[C@@H]1C[C@@H](C/C=C(\C)C[C@@H](C)/C=C/C=C3\CO[C@@H]4[C@H](O)C(C)=C[C@@H](C(=O)O1)[C@]34O)O2` ? n

Just curious, what result did `CC(C)(C)C(=O)OCOC(=O)[C@@H]1N2C(=O)[C@@H](NC(=O)[C@H](N)c3ccccc3)[C@H]2SC1(C)C` get here? n

The measured values listed here are drawn from PubChem BioAssay (Tox21).
